system: Serine/threonine-protein kinase 17B (Homo sapiens, UniProt O94768)
Sequence (O94768 whole entry): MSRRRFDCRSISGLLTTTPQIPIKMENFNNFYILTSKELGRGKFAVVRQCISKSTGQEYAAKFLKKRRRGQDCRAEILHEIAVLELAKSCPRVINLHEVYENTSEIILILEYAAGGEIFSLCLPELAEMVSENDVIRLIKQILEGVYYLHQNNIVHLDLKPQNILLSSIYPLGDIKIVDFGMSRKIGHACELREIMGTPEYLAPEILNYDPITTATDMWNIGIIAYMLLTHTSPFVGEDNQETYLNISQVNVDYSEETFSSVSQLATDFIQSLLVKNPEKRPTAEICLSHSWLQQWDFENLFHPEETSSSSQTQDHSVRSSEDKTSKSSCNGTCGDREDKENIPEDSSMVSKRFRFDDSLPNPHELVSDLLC
protocol-summary: Inhibition of DRAK2 (unknown origin)
measured-endpoint: IC50

- Nc1c(-c2n[nH]c(=S)o2)sc2ncc(-c3ccsc3)cc12: 29 nM

====

Below: a set of entries, each annotated with reported IC50.
system: Serine/threonine-protein kinase 17B (Homo sapiens, UniProt O94768)
protocol-summary: Inhibition of recombinant GST-tagged DRAK2 (unknown origin) autophosphorylation after 2 hrs by ADP-glo assay
measured-endpoint: IC50 (µM)

* COc1ccc(-c2cnc3scc(NC(=O)C4CCCCC4)c3c2)cc1OC | 1.31
* CCOc1cc(/C=C2\Oc3ccc(Br)cc3C2=O)ccc1O | 28.1
* CC(C)Oc1cc(/C=C2\Oc3ccccc3C2=O)ccc1O | 17.4
* COc1cc(/C=C2\Oc3ccccc3C2=O)cc(OC)c1O | 6.65
* O=C1/C(=C/c2cccnc2)Oc2ccccc21 | 39.4
* CCCCOc1ccc2c(c1)C(=O)/C(=C/c1ccc(O)c(OCC)c1)O2 | 3.66
* CCOc1cc(/C=C2\Oc3ccc(OC(C)=O)cc3C2=O)ccc1O | 0.69
* O=C1c2ccccc2OC1Cc1ccc(O)c(O)c1 (centres undefined) | 27.8
* O=C1/C(=C/c2ccc(O)c(O)c2)Oc2cc(O)ccc21 | 1.02
* CCOc1cc(/C=C2\Oc3cccc(OC)c3C2=O)ccc1O | 7.26
* COc1ccc2c(c1)C(=O)/C(=C/c1ccc(O)c(O)c1)O2 | 0.25
* COc1ccc(/C=C2\Oc3ccccc3C2=O)cc1O | 12.1
* CCOc1cc(/C=C2\Oc3cc(Cl)ccc3C2=O)ccc1O | 40.5
* CCOc1ccc2c(c1)C(=O)/C(=C/c1ccc(O)c(OCC)c1)O2 | 0.41
* COc1ccc(/C=C2\Oc3ccccc3C2=O)cc1OC | 21.4
* COc1cc(/C=C2\Oc3ccccc3C2=O)ccc1O | 3.11
* O=C1/C(=C/c2ccco2)Oc2ccccc21 | 64
* O=C1/C(=C/c2ccc(O)c(O)c2)Cc2ccccc21 | 13.3
* CCOc1cc(/C=C2\Oc3ccc(Cl)cc3C2=O)ccc1O | 13.7
* CCOc1cc(/C=C2\Oc3ccc(OC)cc3C2=O)ccc1O | 0.33
* O=C1/C(=C/c2ccc(O)cc2)Oc2ccccc21 | 53
* O=C1/C(=C/c2ccc(O)c(O)c2)Oc2ccc(O)cc21 | 0.99
* CCOc1cc(/C=C2\Oc3ccc(N)cc3C2=O)ccc1O | 7.16
* O=C1/C(=C/c2ccc(CO)cc2)Oc2ccccc21 | 11.1
